The measurements presented in this section are drawn from ChEMBL document CHEMBL5537208.

Protein target, amino acids: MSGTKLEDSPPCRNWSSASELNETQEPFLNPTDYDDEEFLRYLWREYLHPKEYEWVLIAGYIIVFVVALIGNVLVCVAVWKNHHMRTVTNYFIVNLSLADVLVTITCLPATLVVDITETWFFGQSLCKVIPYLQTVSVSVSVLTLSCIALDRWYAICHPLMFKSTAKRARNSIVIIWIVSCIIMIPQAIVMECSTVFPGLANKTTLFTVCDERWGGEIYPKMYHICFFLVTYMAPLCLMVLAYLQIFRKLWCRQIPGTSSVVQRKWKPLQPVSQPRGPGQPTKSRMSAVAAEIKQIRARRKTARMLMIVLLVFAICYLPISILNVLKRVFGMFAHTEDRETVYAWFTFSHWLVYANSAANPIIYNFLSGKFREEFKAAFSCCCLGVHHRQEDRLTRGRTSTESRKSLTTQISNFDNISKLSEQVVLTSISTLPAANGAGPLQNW
pIC50: −log10 of the molar value.
Measured pIC50, listed per entry for reference.
Assay Metric: pIC50

INSERT INTO measurements (compound, val) VALUES
  ('Cc1ccc(-n2nccn2)c(C(=O)N2CCC[C@H]2Cc2cccc(-n3nccn3)c2)c1', 8.15),
  ('Cc1ccc(C(=O)N2C[C@H](C)OC[C@H]2Cc2cccc(-n3nccn3)c2)c(-n2nccn2)c1', 6.58),
  ('Cc1cccc(-c2sc(C)nc2C(=O)N2CCC[C@H]2Cc2cccc(-c3ncon3)c2)c1', 8.36),
  ('Cc1cccc(-c2sc(C)nc2C(=O)N2CCC[C@H]2Cc2cccc(-n3cccn3)c2)c1', 7.70),
  ('Cc1ccc(C(=O)N2CCOC[C@H]2Cc2ccc(C)c(-n3nccn3)c2)c(-n2nccn2)c1', 6.74),
  ('Cc1ccc(C(=O)N2CCOC[C@H]2Cc2cc(-n3nccn3)ccc2Cl)c(-n2nccn2)c1', 6.23),
  ('Cc1ccc(C(=O)N2CCOC[C@H]2Cc2cccc(-n3nccn3)c2)c(-n2nccn2)c1 [NIVASOREXANT]', 6.64),
  ('Cc1ccc(-n2nccn2)c(C(=O)N2CCOC[C@H]2Cc2cccc(-n3nccn3)c2)c1', 6.67);

---

Assay Method Text: Drug concentration in cerebrospinal fluid of Wistar rat at 1 mg/kg, po measured after 1 hr by LC-tandem MS analysis
Format: ADME, organism-based
Condition Summary: read-out: Ct
# concentration at 1 h listing for each entry below
Assay Metric: concentration at 1 h (nM)

INSERT INTO results (cpd_smiles, val) VALUES
  ('Cc1ccc(C(=O)N2CCOC[C@H]2Cc2cccc(-n3nccn3)c2)c(-n2nccn2)c1', 718),
  ('Cc1ccc(C(=O)N2CCOC[C@H]2Cc2cccc(-n3nccn3)c2)c(-n2nccn2)c1C', 370),
  ('Cc1ccc(-n2nccn2)c(C(=O)N2CCOC[C@H]2Cc2cccc(-n3nccn3)c2)c1', 51),
  ('Cc1cccc(C(=O)N2CCOC[C@H]2Cc2cccc(-n3nccn3)c2)c1-n1nccn1', 1000),
  ('Cc1ccc(C(=O)N2CCOC[C@H]2Cc2cc(-n3nccn3)ccc2F)c(-n2nccn2)c1', 550);

---

Assay Method Text: Unbound drug concentration in Wistar rat brain at 1 mg/kg, po measured after 1 hr by LC-tandem MS analysis
Format: ADME, organism-based
Condition Summary: in vivo
Each record here notes measured Drug uptake(free).
Assay Metric: Drug uptake(free)

INSERT INTO results (cpd_smiles, val) VALUES
  ('Cc1ccc(C(=O)N2CCOC[C@H]2Cc2cccc(-n3nccn3)c2)c(-n2nccn2)c1', '413 nM'),
  ('Cc1ccc(-n2nccn2)c(C(=O)N2CCOC[C@H]2Cc2cccc(-n3nccn3)c2)c1', '19 nM'),
  ('Cc1ccc(C(=O)N2CCOC[C@H]2Cc2cc(-n3nccn3)ccc2F)c(-n2nccn2)c1', '307 nM'),
  ('Cc1ccc(C(=O)N2CCOC[C@H]2Cc2cccc(-n3nccn3)c2)c(-n2nccn2)c1C', '147 nM'),
  ('Cc1cccc(C(=O)N2CCOC[C@H]2Cc2cccc(-n3nccn3)c2)c1-n1nccn1', '260 nM');

---

Measured Papp A→B, listed per entry for reference.
Assay Method Text: Apparent permeability across apical to basal side in MDCKI-MDR1 cells
Assay type: ADME, cell-based, Canis lupus familiaris
Condition Summary: dog, MDCK-MDR1
Assay Metric: Papp A→B (×10⁻⁶ cm/s)

INSERT INTO measurements (compound, assay_metric, measurement_units, val) VALUES
  ('Cc1ccc(C(=O)N2CCOC[C@H]2Cc2cccc(-n3nccn3)c2)c(-n2nccn2)c1C', 'Papp A→B', '×10⁻⁶ cm/s', 11.8),
  ('Cc1ccc(C(=O)N2CCOC[C@H]2Cc2cccc(-n3nccn3)c2)c(-n2nccn2)c1 [NIVASOREXANT]', 'Papp A→B', '×10⁻⁶ cm/s', 20.4),
  ('Cc1ccc(-n2nccn2)c(C(=O)N2CCOC[C@H]2Cc2cccc(-n3nccn3)c2)c1', 'Papp A→B', '×10⁻⁶ cm/s', 15.3),
  ('Cc1cccc(C(=O)N2CCOC[C@H]2Cc2cccc(-n3nccn3)c2)c1-n1nccn1', 'Papp A→B', '×10⁻⁶ cm/s', 16.1),
  ('COc1ccc(-n2nccn2)c(C(=O)N2CCOC[C@H]2Cc2cccc(-n3nccn3)c2)c1', 'Papp A→B', '×10⁻⁶ cm/s', 6.1),
  ('COc1ccc(C(=O)N2CCOC[C@H]2Cc2cccc(-n3nccn3)c2)c(-n2nccn2)c1', 'Papp A→B', '×10⁻⁶ cm/s', 8.7);

---

Assayed Target: Orexin/Hypocretin receptor type 1 (Homo sapiens)
Sequence (O43613 whole entry): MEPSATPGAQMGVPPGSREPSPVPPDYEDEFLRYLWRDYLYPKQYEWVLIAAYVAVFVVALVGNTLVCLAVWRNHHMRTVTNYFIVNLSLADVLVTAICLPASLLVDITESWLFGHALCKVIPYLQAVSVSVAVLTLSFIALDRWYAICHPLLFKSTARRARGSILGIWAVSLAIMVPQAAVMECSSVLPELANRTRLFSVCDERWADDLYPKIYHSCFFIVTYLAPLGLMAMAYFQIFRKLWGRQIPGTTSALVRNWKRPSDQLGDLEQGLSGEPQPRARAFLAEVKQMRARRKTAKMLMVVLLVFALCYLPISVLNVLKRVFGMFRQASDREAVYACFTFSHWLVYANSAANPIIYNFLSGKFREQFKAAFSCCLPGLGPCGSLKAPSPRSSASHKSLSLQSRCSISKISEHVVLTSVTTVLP
Assay Metric: log10 of IC50 (log10 of the value in nM)

INSERT INTO assay_data (cpd_smiles, val) VALUES
  ('Cc1ccc(C(=O)N2CCOC[C@H]2Cc2ccc(C)c(-n3nccn3)c2)c(-n2nccn2)c1', 0.15),
  ('Cc1ccc(C(=O)N2C[C@H](C)OC[C@H]2Cc2cccc(-n3nccn3)c2)c(-n2nccn2)c1', 1.04),
  ('Cc1cccc(C(=O)N2CCOC[C@H]2Cc2cccc(-n3nccn3)c2)c1-n1nccn1', 0.74),
  ('Cc1ccc(C(=O)N2CCOC[C@H]2Cc2cc(Cl)cc(-n3nccn3)c2)c(-n2nccn2)c1', 0.28),
  ('COc1ccc(-n2nccn2)c(C(=O)N2CCOC[C@H]2Cc2cccc(-n3nccn3)c2)c1', 0.48),
  ('Cc1ccc(C(=O)N2[C@H](Cc3cccc(-n4nccn4)c3)COC[C@@H]2C)c(-n2nccn2)c1', 1.53),
  ('O=C(c1ccc(F)cc1-n1nccn1)N1CCOC[C@H]1Cc1cccc(-n2nccn2)c1', 1.57),
  ('Cc1ccc(C(=O)N2CCOC[C@H]2Cc2cc(-n3nccn3)ccc2C)c(-n2nccn2)c1', 0.61);

---

Assay Method Text: Clearance in dog
Assay type: ADME, Canis lupus familiaris
Condition Summary: in vivo
Assay Metric: clearance (mL/min/kg)

INSERT INTO measurements (compound, assay_metric, val) VALUES
  ('Cc1ccc(C(=O)N2CCOC[C@H]2Cc2cccc(-n3nccn3)c2)c(-n2nccn2)c1 [NIVASOREXANT]', 'clearance', 7.7);

---

Assay Method Text: Apparent permeability across basal to apical side in MDCKI-MDR1 cells
Type: ADME, cell-based, Canis lupus familiaris
Condition Summary: dog, MDCK-MDR1
Assay Metric: Papp B→A (×10⁻⁶ cm/s)

INSERT INTO assay_data (compound, val) VALUES
  ('Cc1cccc(C(=O)N2CCOC[C@H]2Cc2cccc(-n3nccn3)c2)c1-n1nccn1', 66),
  ('COc1ccc(C(=O)N2CCOC[C@H]2Cc2cccc(-n3nccn3)c2)c(-n2nccn2)c1', 62.4),
  ('COc1ccc(-n2nccn2)c(C(=O)N2CCOC[C@H]2Cc2cccc(-n3nccn3)c2)c1', 60.6),
  ('Cc1ccc(-n2nccn2)c(C(=O)N2CCOC[C@H]2Cc2cccc(-n3nccn3)c2)c1', 55.9),
  ('Cc1ccc(C(=O)N2CCOC[C@H]2Cc2cccc(-n3nccn3)c2)c(-n2nccn2)c1C', 59.4),
  ('Cc1ccc(C(=O)N2CCOC[C@H]2Cc2cccc(-n3nccn3)c2)c(-n2nccn2)c1 [NIVASOREXANT]', 70.5);
